assay: inhibitors of E-selectin induction by TNFa, primary screen, imaging, HUVEC, immunofluorescence, MLSMR starter and 10KST1 sets (AID 487); details: HUVEC TNFalpha-induced E-selectin immunofluorescence imaging, at 2 µM; measured here: cell number, toxicity;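 further: 100% = median nuclei count of all wells on the same plate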
REPORTED_METRIC: nuclei count (%)
Write it as a number; the unit % goes unstated.

Q: Give me measured nuclei count, please, for this compound: COc1ccc(S(=O)(=O)NC(C)C(=O)Nc2cccc(C(C)=O)c2)cc1 (stereo unspecified)
A: 62.6

Q: Give me measured nuclei count, please, for this compound: `CCCCSc1nnc2n(CCc3ccccc3)c(=O)c3c4c(sc3n12)COC(C)(C)C4`
A: 170

Q: Give me measured nuclei count, please, for this compound: `O=C(COC(=O)c1cncc(Br)c1)NCCC1=CCCCC1`
A: 116

Q: Give me measured nuclei count, please, for this compound: `CCOCCOc1nc2c(c(=O)n(C)c(=O)n2C)n1Cc1ccc(C)cc1`
A: 114

Q: Give me measured nuclei count, please, for this compound: `CC(=O)N1CCN(C(=O)COc2ccc(Br)cc2)CC1`
A: 139

Q: Give me measured nuclei count, please, for this compound: COc1ccccc1N1CCN(C(=O)C(Cc2ccccc2)NC(=O)C2CCCCC2)CC1 (stereo unspecified)
A: 96.1

Q: Give me measured nuclei count, please, for this compound: `COc1ccc(CSC2=NCCN2)cc1Cl`
A: 83.1

Q: Give me measured nuclei count, please, for this compound: COC(=O)c1ccc(C2/C(=C(\O)c3ccc4c(c3)OCCO4)C(=O)C(=O)N2CCCN(C)C)cc1 (stereo unspecified)
A: 91.5

Q: Give me measured nuclei count, please, for this compound: CCOc1cccc(/C(O)=C2/C(=O)C(=O)N(CCN3CCOCC3)C2c2cccnc2)c1 (stereo unspecified)
A: 97.6

Q: Give me measured nuclei count, please, for this compound: `O=C(CSc1nc2ccccc2c(=O)n1CC1CCCCC1)N1CCOCC1`
A: 136

Q: Give me measured nuclei count, please, for this compound: `COc1cc(/C=N/n2nnnc2N)ccc1O`
A: 150

====

assay: inhibitors of E-selectin induction by TNFa, primary screen, imaging, HUVEC, immunofluorescence, MLSMR starter and 10KST1 sets (AID 487); conditions: HUVEC TNFalpha-induced E-selectin immunofluorescence imaging, at 2 µM; measured here: cell number, toxicity;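 further: 100% = median nuclei count of all wells on the same plate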
REPORTED_METRIC: nuclei count
Reply with a number, then the unit it belongs to.

Q: Give me measured nuclei count, please, for this molecule: `O=c1c2ccccc2nc(SCc2cccc(F)c2)n1Cc1ccco1`
A: 91.3%

Q: Give me measured nuclei count, please, for this molecule: Cc1nn(CC(O)Cn2c3c(c4ccccc42)CCN(C)C3=O)c(C)c1Br (stereo unspecified)
A: 75.2%

Q: Give me measured nuclei count, please, for this molecule: `CCc1ccc(-c2cn3nc(C)c(C)nc3n2)cc1`
A: 143%

Q: Give me measured nuclei count, please, for this molecule: `CN(C)c1ccc(NC(=O)c2cc3c(=O)n4ccccc4nc3n2C)cc1`
A: 68.8%

Q: Give me measured nuclei count, please, for this molecule: `Cc1nc(CCNC(=O)c2ccccc2)cs1`
A: 127%

Q: Give me measured nuclei count, please, for this molecule: O=C(NC1CC1)C1CCC(=O)N1C1CCCC1 (stereo unspecified)
A: 246%

Q: Give me measured nuclei count, please, for this molecule: Cc1cc(C)n(C2CCCCC2OC(=O)c2ccccc2)n1 (stereo unspecified)
A: 129%

Q: Give me measured nuclei count, please, for this molecule: `CC1(C)Cc2ccccc2-c2c1c(=O)n(-c1ccccc1)c1nnnn21`
A: 92.5%

Q: Give me measured nuclei count, please, for this molecule: `O=C(CN1C(=O)c2ccccc2S1(=O)=O)NCc1ccccc1Cl`
A: 108%

Q: Give me measured nuclei count, please, for this molecule: `N#Cc1c(N)nc2c(c1-c1ccncc1)CCCCC2`
A: 103%

Q: Give me measured nuclei count, please, for this molecule: COc1ccccc1N1C(=O)c2ccccc2NC1c1ccncc1 (stereo unspecified)
A: 163%

Q: Give me measured nuclei count, please, for this molecule: `O=C(CCC(=O)c1cccs1)NCc1ccccc1`
A: 132%

Q: Give me measured nuclei count, please, for this molecule: CC(=O)OC1CSc2nc3ccccc3n2C1 (stereo unspecified)
A: 118%

Q: Give me measured nuclei count, please, for this molecule: CCOc1ccc(C2CC(c3ccccc3)Nc3nc(N)nn32)cc1 (stereo unspecified)
A: 144%

Q: Give me measured nuclei count, please, for this molecule: `O=C(CSc1ncnc2c1oc1ccccc12)Nc1ccccc1C(F)(F)F`
A: 106%

Q: Give me measured nuclei count, please, for this molecule: `Cn1c(=O)c2c(nc(Oc3ccc4c(c3)OCO4)n2Cc2ccc(Br)cc2)n(C)c1=O`
A: 123%

Q: Give me measured nuclei count, please, for this molecule: `CC1CCN(S(=O)(=O)c2cn(CC(=O)N3CCN(C)CC3)c(=O)c3ccccc23)CC1`
A: 121%

Q: Give me measured nuclei count, please, for this molecule: CCCC(=O)C1=C(N(C)c2ccccc2)CC(C)(C)C(C(=O)OC)C1=O (stereo unspecified)
A: 121%

Q: Give me measured nuclei count, please, for this molecule: `O=c1c2c3c(sc2n2cnnc2n1C1CCCCC1)CCC3`
A: 172%

Q: Give me measured nuclei count, please, for this molecule: CCOc1ccc(C2CC(=O)NC3=C2C(=O)CCC3)cc1Cl (stereo unspecified)
A: 110%

Q: Give me measured nuclei count, please, for this molecule: `Cc1cc(C)c(C(=O)CSc2nnc(-c3ccccc3Br)o2)cc1C`
A: 124%

Q: Give me measured nuclei count, please, for this molecule: COC(=O)c1ccccc1NC(=O)CC(NCc1ccccc1)C(=O)O (stereo unspecified)
A: 116%

Q: Give me measured nuclei count, please, for this molecule: CCC(C)(C)n1nnnc1C(c1ccncc1)N1CCN(c2cccc(OC)c2)CC1 (stereo unspecified)
A: 98.8%

Q: Give me measured nuclei count, please, for this molecule: `COC(=O)c1ccccc1OCc1cccc(C)n1`
A: 138%

Q: Give me measured nuclei count, please, for this molecule: `Cc1cc(C)nc(Sc2ccc3nnc(C(F)(F)C(F)(F)C(F)(F)F)n3n2)n1`
A: 99.7%

Q: Give me measured nuclei count, please, for this molecule: `COC(=O)c1ccc(CN(C(C)=O)c2ccccc2)o1`
A: 141%

Q: Give me measured nuclei count, please, for this molecule: CCOc1ccccc1C(=O)NC(C)c1ccc2c(c1)OCO2 (stereo unspecified)
A: 92.4%

Q: Give me measured nuclei count, please, for this molecule: `Nc1nnnn1/N=C/c1ccco1`
A: 90.4%

Q: Give me measured nuclei count, please, for this molecule: O=C(NCc1ccccc1)C1CCCN1S(=O)(=O)c1cccc2cccnc12 (stereo unspecified)
A: 111%

Q: Give me measured nuclei count, please, for this molecule: `C/C=C(\CS(=O)(=O)c1ccccc1)S(=O)(=O)c1ccccc1`
A: 73%

Q: Give me measured nuclei count, please, for this molecule: `CC1(C)Cc2c(c(N3CCOCC3)nc3sc4c(=O)[nH]cnc4c23)CS1`
A: 100%

Q: Give me measured nuclei count, please, for this molecule: `CCN(Cc1nc2ccccc2c(=O)[nH]1)Cc1cc(=O)oc2cc(C)c(C)cc12`
A: 126%

Q: Give me measured nuclei count, please, for this molecule: `COc1ccc(CNC(=O)c2cc3c(=O)n4ccccc4nc3n(Cc3ccco3)c2=N)cc1`
A: 113%

Q: Give me measured nuclei count, please, for this molecule: COc1ccc(Cl)cc1N1CC(c2nc3ccccc3[nH]2)CC1=O (stereo unspecified)
A: 107%

Q: Give me measured nuclei count, please, for this molecule: `COc1ccc(C)cc1S(=O)(=O)N(CC(=O)O)c1ccccc1`
A: 144%

Q: Give me measured nuclei count, please, for this molecule: `Cc1noc(C)c1CSc1nnc2scc(-c3ccc(Cl)cc3)n12`
A: 122%

Q: Give me measured nuclei count, please, for this molecule: `CC(C)(C)Nc1nc(NC(C)(C)C)nc(-n2ccnc2)n1`
A: 91.6%

Q: Give me measured nuclei count, please, for this molecule: `Cc1ccc(S(=O)(=O)N(CC(=O)NCc2ccco2)Cc2ccccc2F)cc1`
A: 103%

Q: Give me measured nuclei count, please, for this molecule: `CCOc1ccccc1N1Cc2cc(C)c(C)cc2C1`
A: 118%

Q: Give me measured nuclei count, please, for this molecule: `COc1ccc(NC(=O)N2CCN(c3nc(-c4cccc(OC)c4)cs3)CC2)cc1`
A: 104%

Q: Give me measured nuclei count, please, for this molecule: `CCCCn1c(=O)n(C)c(=O)c2c3c(sc21)COC(C)(C)C3`
A: 144%

Q: Give me measured nuclei count, please, for this molecule: `Cc1ccc(-n2ncc3c(NCc4cccnc4)ncnc32)c(C)c1`
A: 103%

Q: Give me measured nuclei count, please, for this molecule: `O=C(NCCc1c[nH]c2ccccc12)c1ccc(S(=O)(=O)NCc2ccco2)cc1`
A: 98.6%

Q: Give me measured nuclei count, please, for this molecule: `CCSc1nnc(NC(NC(=O)c2ccco2)(C(F)(F)F)C(F)(F)F)s1`
A: 91.9%

Q: Give me measured nuclei count, please, for this molecule: `O=C(O)c1cc(-c2ccccc2Cl)n[nH]1`
A: 97.9%

Q: Give me measured nuclei count, please, for this molecule: `O=C(O)CSCC(=O)Nc1ccc(S(=O)(=O)N2CCCCC2)cc1`
A: 162%
